assay: Pharmacokinetic study of zidovudine with or without sauchinone in mice; settings: mouse, plasma, iv, 15 mg/kg, AUC, time zero to infinity; mice; zidovudine 15 mg/kg iv with vehicle; mean ± SD, n = 11
measuredMetric: AUC (ng·h/mL)
Express it in ng·h/mL; write the number only.

[in] Record request: AUC value, item "Cc1cn([C@H]2C[C@H](N=[N+]=[N-])[C@@H](CO)O2)c(=O)[nH]c1=O"
[out] 3800

----------
assay: Pharmacokinetic study of zidovudine with or without sauchinone in mice; conditions: mouse, plasma, iv, 15 mg/kg, t1/2, mice; zidovudine 15 mg/kg iv with vehicle; mean ± SD, n = 11
measuredMetric: half-life (h)
Respond with the bare value in h.

[in] Which half-life value is on record for "Cc1cn([C@H]2C[C@H](N=[N+]=[N-])[C@@H](CO)O2)c(=O)[nH]c1=O" ?
[out] 3.45
